Target: T1, human lambda-5 (on the pre-BCR-expressing human pre-B cell line NALM-6) (human, UniProt P15814 38-213)
T1 construct: On NALM-6 cells lambda-5 stands in the pre-BCR together with VpreB and the mu heavy chain; also called IGLL1; lambda-5 subunit of the SLC of human pre-BCR
T1 sequence (P15814 38-213 limits assumed): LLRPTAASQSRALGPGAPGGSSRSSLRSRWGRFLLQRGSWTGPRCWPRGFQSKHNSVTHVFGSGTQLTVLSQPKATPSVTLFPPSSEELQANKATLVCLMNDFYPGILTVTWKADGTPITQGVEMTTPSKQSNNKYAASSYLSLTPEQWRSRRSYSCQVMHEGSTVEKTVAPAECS
Assay: flow cytometry, saturation binding of recombinant chimeric mAb to NALM-6 cells
Protocol: Avidity of each VpreB antibody was determined by measuring saturation binding kinetics of antibody to NALM-6 cells using flow cytometry as follows. […] The 50% effective concentration (EC₅₀) was calculated using GraphPad Prism software. […] The avidity of each lambda-5 antibody was determined by measuring saturation binding kinetics of recombinant, chimeric mAb to NALM-6 cells using flow cytometry as described for the VpreB antibody saturation binding kinetics experiment. […]
property.measured: pEC50
In textbook form, pEC50 equals minus log to base ten of the concentration in mol/L.

Field pEC50 (entry lambda-5 antibody 4-12G1 (recombinant mouse-human chimeric IgG1/kappa) (antibody, V domains shown, also called mAb 4-12G1) VH: EVQLEESGAELVRSGASVKLSCTASGFNIKDYYLHWVKQRPEQGLEWIGWIDPENGATDYAPKFQGKASMTADTSSNTAYLQLSSLTFEDTAVYYCNEGYYDYDADSAMDYWGQGTSVTVSS VL: DVLMTQTPLSLPVSLGDQASISCRSSQSLVHSDGITYLHWYLQKPGQSPKLLIYKVSNRFSGVPDRFSGSGSGTDFTLKISRVEAEDLGVYFCSQSARVPWTFGGGTKLEIKR ) reads 8.35
